Target: T1, P6-AA-12HGe-K
T1 chain: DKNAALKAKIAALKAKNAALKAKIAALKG
Assay: two-hybrid library CCmax;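 also: natural log of median RNA to DNA barcode read ratio; higher means stronger binding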
Settings: mean of both orientations
Rule: interaction score below -0.3 gives rule met, anything at or above gives rule not met.

stdin: interaction score strictly < -0.3 for this binder? DENAALEARIAALRARNAALRAEIAALEG [P5-AA-12HGe-R]
stdout: rule met

stdin: Next: DENAALEAYIAALYAYNAALYAEIAALEG [P5-AA-12HGe-Y]
stdout: rule not met

stdin: Next: DENAALEAAIAALAAANAALAAEIAALEG [P5-AA-12HGe-A]
stdout: rule not met

stdin: Next: DENAALEASIAALSASNAALSAEIAALEG [P5-AA-12HGe-S]
stdout: rule not met

stdin: Next: DENAALEAQIAALQAQNAALQAEIAALEG [P5-AA-12HGe-Q]
stdout: rule not met
